# maps each entry to its GI50
test system: DU-145 prostate; experiment: NCI tumour cell line growth inhibition, 48 h

Solved entries:
Molecule	GI50
Cn1cnc2c(F)c(Nc3ccc(Br)cc3F)c(C(=O)NOCCO)cc21	51.1 µM
NS(=O)(=O)c1ccc(-n2ncc3c(Nc4ccccc4)ncnc32)cc1	35.6 µM
Fc1ccc2c(c1)C1=C(CO2)C(c2ccc(Cl)cc2)NC(=S)N1 (stereo not given)	28 µM
COc1ccc2c(c1)c(-c1ccc(-c3cn(C)c4ccc(OC)cc34)[nH]1)cn2C	10.6 µM

Now look at this one.
Exercise: Item under review: "CC(C)C[C@H](NC(=O)CCn1ccc2ncccc2c1=O)B(O)O" . Reported GI50?
Solution: 19.6 µM

* * *

tested on: K-562 leukemia; assay: NCI tumour cell line growth inhibition, 48 h; in the data active means GI50 below about 0.43 µM; inactive means the rest
Respond only with the outcome that fits, drawn from True for active, False for inactive

Take a look at these entries with their results.
Compound	Class Label
COc1c(Cl)ccc2c(-c3nc4cc(Cl)c(F)cc4s3)cc(=O)oc12	False
Cc1ncc(C(=O)Nc2ccc(CN3CCN(C)CC3)c(C(F)(F)F)c2)cc1C#Cc1c(N)ncc2ccccc12	True
Nc1ccc(C(OC(=O)c2cc3ccccc3c(Cc3c(O)c(C(=O)OC(c4ccc(N)cc4)(c4ccc(N)cc4)c4ccc(N)cc4)cc4ccccc34)c2O)(c2ccc(N)cc2)c2ccc(N)cc2)cc1	False

Exercise: Entry "C[C@@H](COCCC(=O)N1CCN(c2ncc(C(F)(F)F)cn2)CC1)Nc1cn[nH]c(=O)c1C(F)(F)F" : call = ?
Solution: False

Exercise: Entry "CCCCCCCCCCCCCCCCCCOc1ccccc1CC(=O)NCC[N+](C)(C)C" : call = ?
Solution: False

Exercise: Entry "CC(C)C[C@H](NC(=O)[C@H](Cc1cccc2ccccc12)NS(=O)(=O)c1cccc2cccnc12)B(O)O" : call = ?
Solution: True

Exercise: Entry "O=S(=O)(NC1=NCCN1C(=S)SN1CCn2c1nsc2=S)c1ccccc1Cl" : call = ?
Solution: False

Exercise: Entry Nc1nccc2c1ncn2C1OC(CO)C(O)C1O (stereo not drawn) : call = ?
Solution: False

* * *

system: SK-OV-3 ovarian; assay: NCI tumour cell line growth inhibition, 48 h
Property: TGI (µM)
# number only, unit µM dropped from output

Entry Smiles	Property	Recorded Value
COc1ccc(-c2ccc(-c3ccc(C(=N)N)cn3)o2)cc1Cl	TGI	22.8

Exercise: Request: TGI, test system SK-OV-3 ovarian, entry "O=C(CNc1ccc2c(=S)c3ccccc3[nH]c2c1)Nc1ccccc1-c1ccccc1NC(=O)CNc1ccc2c(=S)c3ccccc3[nH]c2c1"
Solution: 48.5

Exercise: Request: TGI, test system SK-OV-3 ovarian, entry "CCN(CC)c1ccc(N=C2C=C(Cl)C(=O)c3ncccc32)c(C)c1"
Solution: 67.9

Exercise: Request: TGI, test system SK-OV-3 ovarian, entry "COc1ccc(-c2cc(-c3cccc(NS(C)(=O)=O)c3)nc(N)c2C#N)cc1"
Solution: 1.57

Exercise: Request: TGI, test system SK-OV-3 ovarian, entry "COc1ccc2c(c1)c1nn(CCN3CCCCC3)c3ccc4c(=O)n(CCN(C)C)c(=O)n2c4c13"
Solution: 2.91

Exercise: Request: TGI, test system SK-OV-3 ovarian, entry "CCOc1ccc(/C=C2\NC(=S)N(/C=C3\C(=O)Oc4ccccc4C3=O)C2=O)cc1"
Solution: 38.8

Exercise: Request: TGI, test system SK-OV-3 ovarian, entry "COc1c(Cl)ccc2c(-c3nc4cc(Cl)c(F)cc4s3)cc(=O)oc12"
Solution: 19.9

* * *

tested on: HCT-116 colon; assay: NCI tumour cell line growth inhibition, 48 h
Property: TGI

Molecule	Study Target	TGI
Nc1nccc2c1ncn2C1OC(CO)C(O)C1O (stereo not given)	HCT-116 colon	> 100 µM
CC(=O)/C=C1\CC(=O)Nc2ccccc2N1	HCT-116 colon	> 100 µM
Nc1ccc2ccc(-c3ccc[nH]3)nc2n1	HCT-116 colon	> 100 µM
COc1cccc(C2SC(C)C(=O)N2CCc2cccs2)c1 (stereo not given)	HCT-116 colon	8.36 µM

Exercise: Request: TGI, test system HCT-116 colon, entry "COc1ccc(Cn2cc3c(c2-c2cc(OC)c(OC)c(OC)c2)CCc2cnoc2-3)cc1N"
Solution: 2.84 µM

Exercise: Request: TGI, test system HCT-116 colon, entry "Cc1cc(C)c(S(=O)(=O)N(CCc2cccc(Br)c2)Cc2ccc(-c3cccc(S(C)(=O)=O)c3)cc2)c(C)c1"
Solution: > 100 µM

Exercise: Request: TGI, test system HCT-116 colon, entry "O=S(=O)(NC1=NCCN1C(=S)SN1CCn2c1nsc2=S)c1ccccc1Cl"
Solution: 28.2 µM

Exercise: Request: TGI, test system HCT-116 colon, entry "CCCCn1c2ccccc2c2ccc3c(c21)C(=O)C=CC3=O"
Solution: > 100 µM

Exercise: Request: TGI, test system HCT-116 colon, entry "O=[N+]([O-])c1ccc([N+]2=NC(c3ccccc3)=NN(c3ccccc3)C2)cc1"
Solution: > 100 µM

Exercise: Request: TGI, test system HCT-116 colon, entry COC12C=CC(C=C1C#N)CC2 (stereo not given) (tested in a mixture with another compound)
Solution: > 100 µM

* * *

# maps each entry to its TGI
test system: DMS 114 small cell lung; experiment: NCI tumour cell line growth inhibition, 48 h

Compound	TGI
NCc1c(C(N)=O)ncn1Cc1ccccc1	> 100 µM
O=C(N/C(=C\c1ccc(/C=C(\NC(=O)c2ccccc2)c2nc3ccccc3s2)cc1)c1nc2ccccc2s1)c1ccccc1	25.9 µM

Exercise: Request: TGI, test system DMS 114 small cell lung, entry "CCOC(=O)C(C)(C)Oc1ccc2c(-c3ccc(Cl)cc3)c(-c3ccc(Cl)cc3)c(=O)oc2c1"
Solution: > 100 µM

Exercise: Request: TGI, test system DMS 114 small cell lung, entry "Cc1ccccc1C(=O)Oc1ccc(OCc2ccccc2)cc1"
Solution: > 100 µM

* * *

# maps each entry to its TGI
tested on: K-562 leukemia; assay: NCI tumour cell line growth inhibition, 48 h

Molecule	Recorded Value
COP(=O)(O)C(N)Cc1c[nH]c2ccccc12 (stereo unspecified)	> 100 µM

Exercise: Item under review: "COc1cccc(CCC(=O)c2cc3c(N)c(C(=O)Nc4cccc(Cl)c4C)sc3nc2C)c1" . Reported TGI?
Solution: > 100 µM

* * *

tested on: M14 melanoma; test: NCI tumour cell line growth inhibition, 48 h
Please use Criterion met whenever TGI is not below 40 µM, and Criterion not met whenever it is.

Take a look at these entries with their results.
Compound	Class Label
C=C1CCCC2[C@](C)(CC3=C(O)C(=O)C=C(OC)C3=O)[C@@H](C)CC[C@]12C (some centres undefined)	Criterion not met
COc1cc(CCN(C)C)cc(OC)c1OC	Criterion met
Cc1ncc(C(=O)Nc2ccc(CN3CCN(C)CC3)c(C(F)(F)F)c2)cc1C#Cc1c(N)ncc2ccccc12	Criterion not met
NS(=O)(=O)c1ccc(-n2ncc3c(Nc4ccccc4)ncnc32)cc1	Criterion met

Exercise: Is the recorded value of TGI equal to or greater than 40 µM for this compound? "Clc1cc(-c2ccccc2)nc2ccccc12"
Solution: Criterion met

Exercise: Is the recorded value of TGI equal to or greater than 40 µM for this compound? Fc1ccc2c(c1)C1=C(CO2)C(c2ccc(Cl)cc2)NC(=S)N1 (centres undefined)
Solution: Criterion met

* * *

# maps each entry to its TGI
system: HS 578T breast; test: NCI tumour cell line growth inhibition, 48 h
# number only, unit µM dropped from output

Exercise: Request: TGI, test system HS 578T breast, entry CCC1(NC(=O)c2cc(F)c(F)c(F)c2F)C(=O)NC(=O)N(C(C)C)C1=O (stereo not given)
Solution: 37.2

* * *

tested on: NCI-H23 lung; assay: NCI tumour cell line growth inhibition, 48 h
# maps each entry to its TGI

Compound	TGI
CN(CC(=O)O)Cc1oc(CO)cc(=O)c1O	> 100 µM
CN(C)CCSCCO	> 100 µM

Now look at this one.
Exercise: Item under review: "O=C(CCSc1ccnc2c(C(F)(F)F)cccc12)N/N=C/c1cc(Cl)c(Cl)cc1Cl" . Reported TGI?
Solution: 52.1 µM

* * *

system: A498 renal; assay: NCI tumour cell line growth inhibition, 48 h; in the data active = GI50 below about 0.43 µM; inactive = the rest
Respond only with the outcome that fits, drawn from 1 (active), 0 (inactive)

Take a look at these entries with their results.
Compound	Class Label
Nc1c(C(=O)N/N=C/c2ccc(-c3cc(Cl)c(Cl)cc3Cl)o2)cnn1-c1ccnc2c(C(F)(F)F)cccc12	0
Cc1ncc(C(=O)Nc2ccc(CN3CCN(C)CC3)c(C(F)(F)F)c2)cc1C#Cc1c(N)ncc2ccccc12	0
CNC1=C(C(=O)OC)SC(c2ccccc2)(c2ccccc2)SC1	0
CCNNC(=O)[C@@H]1[C@H](c2cc(OC)c(OC)c(OC)c2)c2cc3c(cc2[C@H](O)[C@H]1CO)OCO3	1
CC1[C@@H]2CC=C3[C@H]4CCC5Cc6nc7c(nc6C[C@@]5(C)C4(O)CC(=O)[C@]32CO[C@]12OC(C)(C)CC2O)CC1CC[C@@H]2C3=C[C@H]4O[C@@]5(O[C@@](C)(CO)C[C@@H]5O)C(C)[C@@]4(O)[C@]3(C)[C@@H](O)CC2[C@]1(C)C7 (some centres undefined)	1

Exercise: Entry "C=C(CNC(=O)c1ccccc1)c1ccc(C(=O)Nc2ccccc2N)cc1" : call = ?
Solution: 0

Exercise: Entry "Cc1cc(C)c(S(=O)(=O)N(CCc2cccc(Br)c2)Cc2ccc(-c3cccc(S(C)(=O)=O)c3)cc2)c(C)c1" : call = ?
Solution: 0

Exercise: Entry "O=C(N/N=C/c1ccc(Cl)cc1Cl)c1ccc2nc(-c3ccc(Cl)cc3)[nH]c2c1" : call = ?
Solution: 0

Exercise: Entry "NC(=O)c1ccccc1NC(=O)c1ccccc1Cl" : call = ?
Solution: 0

Exercise: Entry "COc1cccc(N=N/C(=N\NC(=O)c2cc(Br)ccc2O)c2ccc(N(CCC#N)CCC#N)cc2OC)c1" : call = ?
Solution: 0

Exercise: Entry COc1cccc(C2SC(C)C(=O)N2CCc2cccs2)c1 (centres undefined) : call = ?
Solution: 0

Exercise: Entry "COc1cc(NC(=O)NCc2ccco2)ccc1-c1ccc(NC(=O)NCc2ccco2)cc1OC" : call = ?
Solution: 0

Exercise: Entry "COc1ccc(Cn2cc3c(c2-c2cc(OC)c(OC)c(OC)c2)CCc2cnoc2-3)cc1N" : call = ?
Solution: 1

Exercise: Entry "CCCCCCCCCCCCCCCCCCOc1ccccc1CC(=O)NCC[N+](C)(C)C" : call = ?
Solution: 0

Taken from PubChem BioAssay (NCI).
